measurement_target: T1, cynomolgus monkey serum albumin (cynomolgus monkey, UniProt A2V9Z4 25-608)
T1 construct: Immobilised on SPR chips; also called cynoSA; cynomolgus albumin
experiment_notes: SPR Biacore 8K+ SCK, albumin on chip, pH 7.4
measured_property: Kd
Quick note: unit goes after the number.

Some binders with recorded Kd:
binder	measured_property	test_value
Alb23 K65A (VHH, VHH alone) VHH: EVQLLESGGGLVQPGGSLRLSCAASGFTFRSFGMSWVRQAPGKGPEWVSSISGSGSDTLYADSVAGRFTISRDNSKNTLYLQMNSLRPEDTAVYYCTIGGSLSRSSQGTLVTVSS	Kd	3.18 nM
Alb23 D57A (VHH, VHH alone) VHH: EVQLLESGGGLVQPGGSLRLSCAASGFTFRSFGMSWVRQAPGKGPEWVSSISGSGSATLYADSVKGRFTISRDNSKNTLYLQMNSLRPEDTAVYYCTIGGSLSRSSQGTLVTVSS	Kd	6.25 nM
Alb23 S35A (VHH, VHH alone) VHH: EVQLLESGGGLVQPGGSLRLSCAASGFTFRSFGMAWVRQAPGKGPEWVSSISGSGSDTLYADSVKGRFTISRDNSKNTLYLQMNSLRPEDTAVYYCTIGGSLSRSSQGTLVTVSS	Kd	5.24 nM

Now consider a different binder.
Sample Alb23 Y60A (VHH, VHH alone) VHH: EVQLLESGGGLVQPGGSLRLSCAASGFTFRSFGMSWVRQAPGKGPEWVSSISGSGSDTLAADSVKGRFTISRDNSKNTLYLQMNSLRPEDTAVYYCTIGGSLSRSSQGTLVTVSS — what was its Kd?
4.58 nM
